Assay: Inhibitory constant of compound against Cdc25 phosphatase was determined
observation.type: pKi
Answer as the number alone; pKi is minus log10 of concentration in mol/L.

q: What value of measured pKi is listed for "CC(C)=CCC/C(C)=C/CC/C(C)=C/Cc1c(Cl)cc(Cl)c2c(C3=C(O)C(O)=CC(=O)C3=O)c[nH]c12" ?
a: 6.33

----------
Biological target: M-phase inducer phosphatase 2 (Homo sapiens, UniProt P30305)
Test: Inhibitory concentration of compound against mutant WT of Cell division cycle 25B was determined
observation.type: IC50 (µM)
Give a bare numeral; the unit µM is implied.

q: Need IC50, item "CC(C)=CCc1cccc2c(C3=C(O)C(O)=CC(=O)C3=O)c[nH]c12"
a: 6.4

----------
Target: M-phase inducer phosphatase 2 (Homo sapiens)
Sequence (P30305 whole entry): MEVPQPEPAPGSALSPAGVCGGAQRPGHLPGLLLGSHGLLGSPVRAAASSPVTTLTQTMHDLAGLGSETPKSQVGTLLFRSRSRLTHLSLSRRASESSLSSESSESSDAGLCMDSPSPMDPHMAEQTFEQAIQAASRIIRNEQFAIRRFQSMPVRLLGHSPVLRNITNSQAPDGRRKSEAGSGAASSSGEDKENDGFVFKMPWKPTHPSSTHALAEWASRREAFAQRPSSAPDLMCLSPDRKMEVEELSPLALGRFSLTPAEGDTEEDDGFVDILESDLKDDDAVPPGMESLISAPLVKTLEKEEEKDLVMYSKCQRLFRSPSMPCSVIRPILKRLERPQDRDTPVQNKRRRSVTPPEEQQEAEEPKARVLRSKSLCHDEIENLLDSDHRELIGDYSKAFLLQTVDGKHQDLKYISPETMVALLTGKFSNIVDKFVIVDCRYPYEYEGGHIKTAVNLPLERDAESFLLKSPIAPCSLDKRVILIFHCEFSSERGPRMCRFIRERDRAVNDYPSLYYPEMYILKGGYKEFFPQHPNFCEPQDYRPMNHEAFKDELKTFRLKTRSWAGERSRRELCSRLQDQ
Assay: Inhibitory concentration of compound against Cdc25B phosphatase was determined using CDK2-p-TpY/Cyclin A as a substrate
pIC50: −log10 of the molar value.
observation.type: pIC50

q: Record request: pIC50 value, item "O=C1C=C(O)C(=O)C(c2c[nH]c3ccccc23)=C1O"
a: < 4.30

----------
observation.type: log10 of IC50 (log10 of the value in µM)
Heads up, the numbers here are log10 of IC50 in µM units.

q: Form field - read-out: log10 of IC50; system: M-phase inducer phosphatase 1 (Homo sapiens); submitted item: "CC(C)(C)c1cccc2c(C3=C(O)C(O)=CC(=O)C3=O)c[nH]c12"
Sequence (P30304 whole entry): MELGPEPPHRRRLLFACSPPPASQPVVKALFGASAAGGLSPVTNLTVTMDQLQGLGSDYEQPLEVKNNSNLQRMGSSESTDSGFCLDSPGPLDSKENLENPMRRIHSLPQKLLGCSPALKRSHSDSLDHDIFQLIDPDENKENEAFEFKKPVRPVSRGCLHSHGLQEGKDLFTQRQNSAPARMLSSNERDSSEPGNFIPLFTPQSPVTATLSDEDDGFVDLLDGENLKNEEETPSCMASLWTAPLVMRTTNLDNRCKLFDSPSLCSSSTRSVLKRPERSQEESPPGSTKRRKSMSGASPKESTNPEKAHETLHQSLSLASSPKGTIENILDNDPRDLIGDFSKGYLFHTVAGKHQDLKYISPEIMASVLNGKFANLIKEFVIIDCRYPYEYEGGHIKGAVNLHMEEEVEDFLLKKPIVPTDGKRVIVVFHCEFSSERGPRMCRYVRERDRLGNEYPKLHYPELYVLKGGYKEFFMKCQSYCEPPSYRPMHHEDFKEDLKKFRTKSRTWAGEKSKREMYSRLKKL
a: 0.86

q: What log10 of IC50 appears in the records for this molecule with M-phase inducer phosphatase 1 (Homo sapiens)? "O=C1C=C(O)C(=O)C(c2c[nH]c3c(Cc4ccccc4)cccc23)=C1O"
a: 0.36

q: Form field - read-out: log10 of IC50; system: M-phase inducer phosphatase 1 (Homo sapiens); submitted item: "O=C1C=C(O)C(=O)C(c2c[nH]c3cccc(Cl)c23)=C1O"
a: 1.45

q: Under M-phase inducer phosphatase 1 (Homo sapiens): log10 of IC50 value of "O=C1C=C(O)C(=O)C(c2c[nH]c3c(OCc4ccccc4)cccc23)=C1O" ?
a: 0.62

q: Enter reported log10 of IC50 observed with M-phase inducer phosphatase 1 (Homo sapiens) for "O=C1C=C(O)C(=O)C(c2c[nH]c3ccc(Br)cc23)=C1O"
a: 0.76

q: Please state recorded log10 of IC50 (tested on M-phase inducer phosphatase 1 (Homo sapiens)) of "CC(C)=CCC/C(C)=C/CC/C(C)=C/Cc1cccc2c(C3=C(O)C(O)=CC(=O)C3=O)c[nH]c12"
a: 0.38

q: Param readout= log10 of IC50; system= M-phase inducer phosphatase 1 (Homo sapiens); entry= "O=C1C=C(O)C(=O)C(c2c(C3CC3)[nH]c3ccccc23)=C1O" ; returns value.
a: 1.54

q: Notebook: pull reported log10 of IC50 for M-phase inducer phosphatase 1 (Homo sapiens), entry "CCCc1cccc2c(C3=C(O)C(O)=CC(=O)C3=O)c[nH]c12"
a: 0.62

q: // lookup log10 of IC50 | system=M-phase inducer phosphatase 1 (Homo sapiens) | key= "O=C1/C(=N/CCc2cc(Br)c(O)c(Br)c2)C=C(O)c2cccnc21"
a: 1.18

q: Query log10 of IC50 on M-phase inducer phosphatase 1 (Homo sapiens) for "O=C1C=C(O)C(=O)C(c2c[nH]c3c2ccc2ccccc23)=C1O"
a: 0.40

q: State its log10 of IC50 on M-phase inducer phosphatase 1 (Homo sapiens): "O=C1C=C(O)C(=O)C(c2c[nH]c3c(-c4ccccc4)cccc23)=C1O"
a: 0.40

----------
Target: M-phase inducer phosphatase 2 (Homo sapiens, UniProt P30305)
Test: Inhibitory concentration of compound against Cell division cycle 25B was determined using CDK2-p-TpY/Cyclin A as a substrate
observation.type: IC50 (µM)
State just the number; it will be interpreted in µM.

q: State its IC50 on M-phase inducer phosphatase 2 (Homo sapiens, UniProt P30305): "CC(C)=CCc1c(Cl)cc(Cl)c2c(C3=C(O)C(O)=CC(=O)C3=O)c[nH]c12"
a: 8.6

q: # query: IC50 | item "CC(C)=CCc1cccc2c(C3=C(O)C(O)=CC(=O)C3=O)c[nH]c12" | system: M-phase inducer phosphatase 2 (Homo sapiens, UniProt P30305)
a: 28.2

----------
Molecular target: M-phase inducer phosphatase 2 (Homo sapiens)
Sequence (whole entry): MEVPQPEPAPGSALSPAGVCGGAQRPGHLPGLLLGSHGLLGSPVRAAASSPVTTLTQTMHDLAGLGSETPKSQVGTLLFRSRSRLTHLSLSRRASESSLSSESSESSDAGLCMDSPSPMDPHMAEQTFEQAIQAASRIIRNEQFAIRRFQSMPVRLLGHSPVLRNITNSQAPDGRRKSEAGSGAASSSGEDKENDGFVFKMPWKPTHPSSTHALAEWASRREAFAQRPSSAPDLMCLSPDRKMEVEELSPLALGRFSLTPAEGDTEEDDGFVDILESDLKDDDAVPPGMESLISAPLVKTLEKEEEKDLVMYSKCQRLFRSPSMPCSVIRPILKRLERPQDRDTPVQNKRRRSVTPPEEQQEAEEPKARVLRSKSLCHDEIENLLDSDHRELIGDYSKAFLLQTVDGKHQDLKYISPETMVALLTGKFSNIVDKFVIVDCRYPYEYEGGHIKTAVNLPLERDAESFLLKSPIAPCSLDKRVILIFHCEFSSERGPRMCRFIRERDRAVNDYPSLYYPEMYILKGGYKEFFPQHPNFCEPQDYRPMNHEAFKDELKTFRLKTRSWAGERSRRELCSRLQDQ
Assay: Percent inhibition of cell division cycle 25B at 50 uM
observation.type: inhibition (%)
Your answer should be a plain number; it is taken to be in %.

q: For the compound shown here, "O=C1C=C(O)C(=O)C(c2c[nH]c3cc(Cl)ccc23)=C1O" , give the reported inhibition.
a: 92

q: State the recorded inhibition for this entry: "CC(C)(C)c1cccc2c(C3=C(O)C(O)=CC(=O)C3=O)c[nH]c12"
a: 33

q: I am curious: what inhibition value has been reported for "COc1ccc2[nH]c(C)c(C3=C(O)C(O)=CC(=O)C3=O)c2c1" ?
a: 0

q: Quick one: inhibition of "COc1ccc2[nH]cc(C3=C(O)C(O)=CC(=O)C3=O)c2c1" ?
a: 0

q: Name the recorded inhibition for "O=C1C=C(O)C(=O)C(c2c[nH]c3c(OCc4ccccc4)cccc23)=C1O" .
a: 97

q: inhibition for "Cn1cc(C2=C(O)C(O)=CC(=O)C2=O)c2ccccc21" ?
a: 42

q: Please give the measured inhibition for this compound: "CC(C)=CCC/C(C)=C/Cc1cccc2c(C3=C(O)C(O)=CC(=O)C3=O)c[nH]c12"
a: 95

q: Which measured inhibition value corresponds to "Cc1ccccc1Cc1cccc2c(C3=C(O)C(O)=CC(=O)C3=O)c[nH]c12" ?
a: 97

q: Given the entry "O=C1C=C(O)C(=O)C(c2c[nH]c3cccc(Cl)c23)=C1O" , report its measured inhibition.
a: 21

q: Query (compound): "O=C1C=C(O)C(=O)C(c2c[nH]c3c(Cc4ccccc4)cccc23)=C1O" ; field requested: inhibition
a: 97

----------
Biological target: M-phase inducer phosphatase 1 (Homo sapiens)
Assay: Percent inhibition of cell division cycle 25A at 50 uM
1 (yes) means recorded inhibition is 90% or above; 0 (no) means it is below 90%.

q: Check the entry "C=CC(C)(C)c1[nH]c2ccccc2c1C1=C(O)C(O)=CC(=O)C1=O" : does inhibition equal or exceed 90%?
a: 0 (no)

q: Given "CC(C)(C)c1[nH]c2ccccc2c1C1=C(O)C(O)=CC(=O)C1=O" , state whether its inhibition is at least 90%.
a: 0 (no)

q: Does the compound "Cc1ccc2c(C3=C(O)C(O)=CC(=O)C3=O)c(C)[nH]c2c1" have recorded inhibition that is 90% or more?
a: 0 (no)

q: Exam item: decide whether the reported inhibition for "O=C1C=C(O)C(=O)C(c2c[nH]c3cc(Cl)ccc23)=C1O" is at least 90%.
a: 1 (yes)

q: Evaluate "O=C1C=C(O)C(=O)C(c2c[nH]c3c2ccc2ccccc23)=C1O" : inhibition at minimum 90%?
a: 1 (yes)

q: Is reported inhibition greater than or equal to 90% here: "CC1(c2[nH]c3ccccc3c2C2=C(O)C(O)=CC(=O)C2=O)CCCCC1"
a: 0 (no)

q: Kindly determine if inhibition recorded for "CC(C)c1[nH]c2ccccc2c1C1=C(O)C(O)=CC(=O)C1=O" is above or exactly 90%.
a: 0 (no)

q: # bool: inhibition of "CCc1[nH]c2ccccc2c1C1=C(O)C(O)=CC(=O)C1=O" >= 90%
a: 0 (no)

q: Identify whether the reported inhibition of the following compound is 90% or greater: "O=C1C=C(O)C(=O)C(c2c[nH]c3cccc(Br)c23)=C1O"
a: 0 (no)

q: Answer whether inhibition of "CC(C)=CCc1cccc2c(C3=C(O)C(O)=CC(=O)C3=O)c[nH]c12" is greater than or equal to 90%.
a: 1 (yes)

q: Determine whether measured inhibition meets or exceeds 90% for "CC(C)=CCC/C(C)=C/Cc1cccc2c(C3=C(O)C(O)=CC(=O)C3=O)c[nH]c12"
a: 0 (no)

q: Is inhibition at least 90%? Consider "COc1ccc2[nH]cc(C3=C(O)C(O)=CC(=O)C3=O)c2c1"
a: 0 (no)

q: State whether the measured inhibition reaches 90%, counting equality as reaching it, for "Cc1ccc2[nH]cc(C3=C(O)C(O)=CC(=O)C3=O)c2c1"
a: 1 (yes)

q: Please check the record "O=C1C=C(O)C(=O)C(c2c[nH]c3ccc(F)cc23)=C1O" and state if its inhibition is at or above 90%.
a: 0 (no)

q: API: above_or_equal(metric=inhibition, cutoff=90%) for item "O=C1C=C(O)C(=O)C(c2c[nH]c3cccc(F)c23)=C1O"
a: 0 (no)

q: Has "Cc1[nH]c2c(C)cccc2c1C1=C(O)C(O)=CC(=O)C1=O" a recorded inhibition greater than or equal to 90%?
a: 0 (no)

q: Item "O=C1C=C(O)C(=O)C(c2c[nH]c3ccccc23)=C1O" with inhibition of 90% or above?
a: 0 (no)

q: Does inhibition meet or surpass 90% for "Cc1ccccc1Cc1cccc2c(C3=C(O)C(O)=CC(=O)C3=O)c[nH]c12" ?
a: 1 (yes)

q: Does the reported inhibition for "Cc1[nH]c2ccccc2c1C1=C(O)C(O)=CC(=O)C1=O" fall at or above the 90% mark?
a: 0 (no)

q: Is inhibition for "CC(C)=CCC/C(C)=C/CC/C(C)=C/Cc1cccc2c(C3=C(O)C(O)=CC(=O)C3=O)c[nH]c12" at or above 90%?
a: 1 (yes)

q: Is it the case that "COc1cc2[nH]cc(C3=C(O)C(O)=CC(=O)C3=O)c2cc1OC" has inhibition reaching or exceeding 90%?
a: 0 (no)

q: Given "CC(C)(C)c1cccc2c(C3=C(O)C(O)=CC(=O)C3=O)c[nH]c12" , state whether its inhibition is at least 90%.
a: 1 (yes)

Data origin, for the record: ChEMBL document CHEMBL1145801
